// reported LD50 for each item listed
# Method summary: Acute toxicity, single oral administration to mice (LD50)
# Assay setup: mouse, in vivo
# Description: Moreover, the Table contains data for the acute toxicity (LD50 in mg/kg in the case of single oral administration to mice).

| Smi | LD50 |
| --- | --- |
| CC(=O)N1CCCC(=O)c2ccc(F)cc2CCC1=O | > 5000 mg/kg |
| CC(=O)N1CCCC2=C1CCc1cc(Cl)ccc12 | 2500 to 5000 mg/kg |
| CC(=O)N1CCCC(=O)c2ccc(Cl)cc2CCC1=O | > 5000 mg/kg |
| CC(=O)N1CCCC(=O)c2c(Cl)cc(Cl)cc2CCC1=O | > 5000 mg/kg |
| CC(=O)N1CCCC(=O)c2c(Cl)cccc2CCC1=O | > 5000 mg/kg |
